# system: PRDX6 with GFP tag (Homo sapiens, UniProt P30041, E210A)
# Sequence (P30041 2-224 E210A): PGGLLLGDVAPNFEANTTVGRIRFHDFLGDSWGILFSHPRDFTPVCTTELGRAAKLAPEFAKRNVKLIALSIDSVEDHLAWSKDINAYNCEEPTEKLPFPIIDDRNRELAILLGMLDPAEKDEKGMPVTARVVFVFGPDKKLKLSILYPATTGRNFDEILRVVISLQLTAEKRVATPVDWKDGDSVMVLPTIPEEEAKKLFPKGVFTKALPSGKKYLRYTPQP
# procedureDetails: cellular microscale thermophoresis, GFP fusion
outcomeMeasure: pKd
Numbers only, as −log10 of the molar value.

Noted for O=c1cc(-c2ccc(O)cc2)oc2cc(O)cc(O)c12 [apigenin, 4’,5,7-trihydroxyflavone] : its pKd reads 4.84
